# ASSAY_SUMMARY: Pharmacokinetic studies of compounds in mice
# Type: in vivo
# PROTOCOL_CONDITIONS: male mice, intragastric administration 10 mg/kg, plasma
eAUC0.5-2 h for assorted compounds
Write the answer as a number in ng·h/mL, unit excluded.

Example compounds with recorded eAUC0.5-2 h:
COMPOUND | UOM | eAUC0.5-2 h
Cc1ncsc1-c1ccc(CNC(=O)[C@@H]2C[C@@H](O)CN2C(=O)[C@@H](NC(=O)COCCCCOc2c(F)cc(-c3ncc(N4C(=S)N(c5ccc(C#N)c(C(F)(F)F)c5F)C(=O)C4(C)C)cc3F)cc2F)C(C)(C)C)cc1 [Compound A77] | ng·h/mL | 1354
Cc1ncsc1-c1ccc([C@H](C)NC(=O)[C@@H]2C[C@@H](O)CN2C(=O)[C@@H](NC(=O)COCCOc2ccc(-c3ncc(N4C(=S)N(c5ccc(C#N)c(C(F)(F)F)c5F)C(=O)C4(C)C)cc3F)cc2F)C(C)(C)C)cc1 [Compound A123] | ng·h/mL | 287
Cc1ncsc1-c1ccc(CNC(=O)[C@@H]2C[C@@H](O)CN2C(=O)[C@@H](NC(=O)COCCCCOc2ccc(-c3ccc(N4C(=S)N(c5ccc(C#N)c(C(F)(F)F)c5F)C(=O)C4(C)C)cn3)cc2F)C(C)(C)C)cc1 [Compound A55] | ng·h/mL | 396
Cc1ncsc1-c1ccc(CNC(=O)[C@@H]2C[C@@H](O)CN2C(=O)[C@@H](NC(=O)COCCOCCOc2c(F)cc(-c3ncc(N4C(=S)N(c5ccc(C#N)c(C(F)(F)F)c5F)C(=O)C4(C)C)cc3F)cc2F)C(C)(C)C)cc1 [Compound A99] | ng·h/mL | 308
Cc1ncsc1-c1ccc([C@H](C)NC(=O)[C@@H]2C[C@@H](O)CN2C(=O)[C@@H](NC(=O)COCCCCOc2c(F)cc(-c3ncc(N4C(=S)N(c5ccc(C#N)c(C(F)(F)F)c5F)C(=O)C4(C)C)cc3F)cc2F)C(C)(C)C)cc1 [Compound A124] | ng·h/mL | 2776
Cc1ncsc1-c1ccc(CNC(=O)[C@@H]2C[C@@H](O)CN2C(=O)[C@@H](NC(=O)c2ccc(CNC(=O)CCCc3ccc(N4C(=S)N(c5ccc(C#N)c(C(F)(F)F)c5F)C(=O)C4(C)C)cn3)cc2)C(C)(C)C)cc1 [Compound A134] | ng·h/mL | 29
Cc1ncsc1-c1ccc(CNC(=O)[C@@H]2C[C@@H](O)CN2C(=O)[C@@H](NC(=O)COCCCCOc2ccc(-c3ncc(N4C(=S)N(c5ccc(C#N)c(C(F)(F)F)c5F)C(=O)C4(C)C)cc3C(F)(F)F)cc2F)C(C)(C)C)cc1 [Compound A74] | ng·h/mL | 746

Lab note: next compound to report on.
Exercise: I have this compound here, Cc1ncsc1-c1ccc(CNC(=O)[C@@H]2C[C@@H](O)CN2C(=O)[C@@H](NC(=O)[C@H]2CC[C@H](CNC(=O)c3ccc(-c4ccc(N5C(=S)N(c6ccc(C#N)c(C(F)(F)F)c6F)C(=O)C5(C)C)cn4)cc3F)CC2)C(C)(C)C)cc1 [Compound A105] , and I need its recorded eAUC0.5-2 h.
Solution: 379

====

# ASSAY_SUMMARY: Pharmacokinetic studies of compounds in mice
# Assay type: in vivo
# PROTOCOL_CONDITIONS: male mice, intragastric administration 10 mg/kg, plasma
MEASURE: eAUC0.5-2 h

Example molecules with recorded eAUC0.5-2 h:
MOLECULE | MEASURE | RESULT
Cc1ncsc1-c1ccc(CNC(=O)[C@@H]2C[C@@H](O)CN2C(=O)[C@@H](NC(=O)COCCCCCOc2ccc(-c3ncc(N4C(=S)N(c5ccc(C#N)c(C(F)(F)F)c5F)C(=O)C4(C)C)cc3F)cc2F)C(C)(C)C)cc1 | eAUC0.5-2 h | 501 ± 103.57 ng·h/mL
Cc1ncsc1-c1ccc(CNC(=O)[C@@H]2C[C@@H](O)CN2C(=O)[C@@H](NC(=O)COCCOCCOc2ccc(-c3ncc(N4C(=S)N(c5ccc(C#N)c(C(F)(F)F)c5F)C(=O)C4(C)C)cc3C(F)(F)F)cc2)C(C)(C)C)cc1 | eAUC0.5-2 h | 275 ± 116 ng·h/mL
CC1(C)C(=O)N(c2ccc(C#N)c(C(F)(F)F)c2F)C(=S)N1c1ccc(-c2ccc(OCCNC(=O)COc3cccc4c3C(=O)N(C3CCC(=O)NC3=O)C4=O)c(C#N)c2)nc1 (stereo not drawn) | eAUC0.5-2 h | 29 ± 12 ng·h/mL
Cc1ncsc1-c1ccc(CNC(=O)[C@@H]2C[C@@H](O)CN2C(=O)[C@@H](NC(=O)COCCOCCOc2ccc(-c3ccc(N4C(=S)N(c5ccc(C#N)c(C(F)(F)F)c5F)C(=O)C4(C)C)cn3)cc2F)C(C)(C)C)cc1 | eAUC0.5-2 h | 70 ± 23 ng·h/mL
CC1(C)C(=O)N(c2ccc(C#N)c(C(F)(F)F)c2F)C(=S)N1c1ccc(-c2ccc(OC3CCN(C(=O)COc4cccc5c4C(=O)N(C4CCC(=O)NC4=O)C5=O)CC3)cc2)nc1 (stereo not drawn) | eAUC0.5-2 h | 98 ± 48 ng·h/mL

Lab note: next molecule to report on.
Exercise: I have this molecule here, Cc1ncsc1-c1ccc(CNC(=O)[C@@H]2C[C@@H](O)CN2C(=O)[C@@H](NC(=O)COCCOc2ccc(-c3ccc(N4C(=S)N(c5ccc(C#N)c(C(F)(F)F)c5F)C(=O)C4(C)C)cn3)cc2)C(C)(C)C)cc1 , and I need its recorded eAUC0.5-2 h.
Solution: 287 ± 135 ng·h/mL

====

DC50 for assorted compounds
# TARGET: AR (Homo sapiens, UniProt P10275, T878A)
# Sequence (P10275 whole entry T878A): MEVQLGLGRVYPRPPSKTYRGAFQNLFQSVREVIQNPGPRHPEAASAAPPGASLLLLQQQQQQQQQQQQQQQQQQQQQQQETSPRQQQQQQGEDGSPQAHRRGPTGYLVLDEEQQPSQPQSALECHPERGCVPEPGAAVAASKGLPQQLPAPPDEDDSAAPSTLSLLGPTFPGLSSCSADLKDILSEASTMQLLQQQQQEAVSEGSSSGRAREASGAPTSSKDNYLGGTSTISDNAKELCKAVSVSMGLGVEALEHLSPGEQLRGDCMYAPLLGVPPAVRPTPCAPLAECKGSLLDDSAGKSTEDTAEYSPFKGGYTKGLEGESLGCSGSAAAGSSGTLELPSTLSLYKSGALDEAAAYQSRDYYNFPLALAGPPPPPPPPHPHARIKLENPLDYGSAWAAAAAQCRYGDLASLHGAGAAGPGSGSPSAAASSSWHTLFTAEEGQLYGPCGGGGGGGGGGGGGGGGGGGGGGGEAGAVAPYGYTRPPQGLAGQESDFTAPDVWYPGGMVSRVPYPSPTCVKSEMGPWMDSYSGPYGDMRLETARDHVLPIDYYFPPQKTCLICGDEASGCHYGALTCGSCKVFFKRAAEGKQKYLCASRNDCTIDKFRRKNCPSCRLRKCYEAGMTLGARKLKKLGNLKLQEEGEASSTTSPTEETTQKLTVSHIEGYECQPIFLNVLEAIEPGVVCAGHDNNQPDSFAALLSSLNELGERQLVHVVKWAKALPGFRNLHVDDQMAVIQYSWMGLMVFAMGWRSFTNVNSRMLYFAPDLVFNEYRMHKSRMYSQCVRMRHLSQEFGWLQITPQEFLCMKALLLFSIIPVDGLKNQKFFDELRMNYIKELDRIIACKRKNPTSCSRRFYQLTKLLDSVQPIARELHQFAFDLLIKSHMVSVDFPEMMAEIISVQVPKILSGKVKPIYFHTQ
# ASSAY_SUMMARY: Effects of compounds on AR expression in LNCaP cells (ELISA, DC50)
# Type: cell-based
# Set-up: Measurement of the Effects of Drugs on the Expression of AR in Cells by ELISA Method; endogenous in cells; host or cells: LNCaP
# PROTOCOL_CONDITIONS: 24 hours of drug treatment, AR by ELISA
Include the unit right after the number.

Example compounds with recorded DC50:
COMPOUND | MEASURE | RESULT
CC(C)(C)[C@H](NC(=O)COCCCCCOc1ccc(-c2ncc(N3C(=S)N(c4ccc(C#N)c(C(F)(F)F)c4F)C(=O)C3(C)C)cc2F)cc1F)C(=O)N1C[C@H](O)C[C@H]1C(=O)NCc1ccc(C(N)=O)cc1 [Compound A117] | DC50 | 0.111 µM
CC1(C)C(=O)N(c2ccc(C#N)c(C(F)(F)F)c2F)C(=S)N1c1cnc(-c2cc(F)c(OC3CCN(C(=O)COc4ccc5c(c4)C(=O)N(C4CCC(=O)NC4=O)C5=O)CC3)c(F)c2)c(F)c1 (stereo not shown) [Compound A189] | DC50 | 0.329 µM

Exercise: I have this compound here, Cc1ncsc1-c1ccc(CNC(=O)[C@@H]2C[C@@H](O)CN2C(=O)[C@@H](NC(=O)COCCCCN2CCN(c3ccc(N4C(=S)N(c5ccc(C#N)c(C(F)(F)F)c5F)C(=O)C4(C)C)cn3)CC2)C(C)(C)C)cc1 [Compound A106] , and I need its recorded DC50.
Solution: 0.402 µM

Exercise: I have this compound here, Cc1ncsc1-c1ccc(CNC(=O)[C@@H]2C[C@@H](O)CN2C(=O)[C@@H](NC(=O)COCCCCOc2ccc(-c3ncc(N4C(=S)N(c5ccc(C#N)c(C(F)(F)F)c5F)C(=O)C4(C)C)cc3C(F)(F)F)cc2)C(C)(C)C)cc1 [Compound A62] , and I need its recorded DC50.
Solution: 0.08 µM

====

eAUC0.5-2 h for assorted molecules
# ASSAY_SUMMARY: Pharmacokinetic studies of compounds in mice
# Type: in vivo
# PROTOCOL_CONDITIONS: male mice, intragastric administration 10 mg/kg, plasma
Write the answer as a number in ng·h/mL, unit excluded.

MOLECULE | UOM | eAUC0.5-2 h
Cc1ncsc1-c1ccc(CNC(=O)[C@@H]2C[C@@H](O)CN2C(=O)[C@@H](NC(=O)COCCOc2ccc(-c3ncc(N4C(=S)N(c5ccc(C#N)c(C(F)(F)F)c5F)C(=O)C4(C)C)cc3F)cc2F)C(C)(C)C)cc1 [Compound A91] | ng·h/mL | 3160

Lab note: next molecule to report on.
Exercise: I have this molecule here, Cc1ncsc1-c1ccc(CNC(=O)[C@@H]2C[C@@H](O)CN2C(=O)[C@@H](NC(=O)COCCCCOc2ccc(-c3ncc(N4C(=S)N(c5ccc(C#N)c(C(F)(F)F)c5F)C(=O)C4(C)C)cc3F)cc2F)C(C)(C)C)cc1 [Compound A70] , and I need its recorded eAUC0.5-2 h.
Solution: 1686

====

# TARGET: AR (Homo sapiens, UniProt P10275, T878A)
# ASSAY_SUMMARY: Effects of compounds on AR expression in LNCaP cells (ELISA, DC50)
# Format: cell-based
# Set-up: Measurement of the Effects of Drugs on the Expression of AR in Cells by ELISA Method; endogenous in cells; host or cells: LNCaP
# PROTOCOL_CONDITIONS: 24 hours of drug treatment, AR by ELISA
MEASURE: DC50
Include the unit right after the number.

Exercise: I have this compound here, Cc1ncsc1-c1ccc(CNC(=O)[C@@H]2C[C@@H](O)CN2C(=O)[C@@H](NC(=O)CCN2CCC(Oc3ccc(-c4ccc(N5C(=S)N(c6ccc(C#N)c(C(F)(F)F)c6F)C(=O)C5(C)C)cn4)cc3)CC2)C(C)(C)C)cc1 [Compound A65] , and I need its recorded DC50.
Solution: 32.4 nM

Exercise: I have this compound here, Cc1ncsc1-c1ccc(CNC(=O)[C@@H]2C[C@@H](O)CN2C(=O)[C@@H](NC(=O)COCCCCOc2ccc(-c3ncc(N4C(=S)N(c5ccc(C#N)c(C(F)(F)F)c5F)C(=O)C4(C)C)cc3C(F)(F)F)cc2F)C(C)(C)C)cc1 [Compound A74] , and I need its recorded DC50.
Solution: 77.8 nM

Exercise: I have this compound here, CC1(C)C(=O)N(c2ccc(C#N)c(C(F)(F)F)c2F)C(=S)N1c1ccc(-c2ccc(C(=O)NCCNC(=O)COc3cccc4c3C(=O)N(C3CCC(=O)NC3=O)C4=O)cc2)nc1 (stereo not drawn) [Compound A34] , and I need its recorded DC50.
Solution: 835 nM

Exercise: I have this compound here, Cc1ncsc1-c1ccc(CNC(=O)[C@@H]2C[C@@H](O)CN2C(=O)[C@@H](NC(=O)COCCOCCOc2ccc(-c3ncc(N4C(=S)N(c5ccc(C#N)c(C(F)(F)F)c5F)C(=O)C4(C)C)cc3F)cc2F)C(C)(C)C)cc1 [Compound A90] , and I need its recorded DC50.
Solution: 36.4 nM

Exercise: I have this compound here, Cc1ncsc1-c1ccc(CNC(=O)[C@@H]2C[C@@H](O)CN2C(=O)[C@@H](NC(=O)COCC(F)(F)CCOc2ccc(-c3ncc(N4C(=S)N(c5ccc(C#N)c(C(F)(F)F)c5F)C(=O)C4(C)C)cc3F)c(C(F)(F)F)c2)C(C)(C)C)cc1 [Compound A168] , and I need its recorded DC50.
Solution: 159 nM

Exercise: I have this compound here, Cc1ncsc1-c1ccc(CNC(=O)[C@@H]2C[C@@H](O)CN2C(=O)[C@@H](NC(=O)c2ccc(CC(=O)Nc3ccc(-c4ccc(N5C(=S)N(c6ccc(C#N)c(C(F)(F)F)c6F)C(=O)C5(C)C)cn4)cc3)cc2)C(C)(C)C)cc1 [Compound A244] , and I need its recorded DC50.
Solution: 173 nM

Exercise: I have this compound here, CC1(C)C(=O)N(c2ccc(C#N)c(C(F)(F)F)c2F)C(=S)N1c1cnc(-c2ccc(OCCNC(=O)COc3ccc4c(c3)C(=O)N(C3CCC(=O)NC3=O)C4=O)c(F)c2)c(F)c1 (stereo not drawn) [Compound A40] , and I need its recorded DC50.
Solution: 29.8 nM

Exercise: I have this compound here, Cc1cc(C(C(=O)N2C[C@H](O)C[C@H]2C(=O)N[C@@H](CC(=O)N2CCC(C#Cc3ccc(N4C(=S)N(c5ccc(C#N)c(C(F)(F)F)c5F)C(=O)C4(C)C)cn3)CC2)c2ccc(-c3scnc3C)cc2)C(C)C)on1 (stereo partly drawn) [Compound A173] , and I need its recorded DC50.
Solution: 78.1 nM

Exercise: I have this compound here, CC(C)(C)[C@H](NC(=O)COCCCCOc1ccc(-c2ncc(N3C(=S)N(c4ccc(C#N)c(C(F)(F)F)c4F)C(=O)C3(C)C)cc2F)c(C(F)(F)F)c1)C(=O)N1C[C@H](O)C[C@H]1C(=O)NCc1ccccc1 [Compound A132] , and I need its recorded DC50.
Solution: 161 nM

The reported numbers originate from patent US12606552B2.
